target: T1, recombinant human Tau monomer, 2N4R isoform (amino acids 2-441) (human, UniProt P10636-8 2-441); test: SPR, captured IgG, Tau monomer analyte, 1:1 model; fit-quality column: Yes
T1 construct: range 2-441; N-terminal His-tag removed with TEV protease; also called monomeric Tau
T1 sequence (P10636 other isoform, or with tags, fused parts or gaps limits assumed): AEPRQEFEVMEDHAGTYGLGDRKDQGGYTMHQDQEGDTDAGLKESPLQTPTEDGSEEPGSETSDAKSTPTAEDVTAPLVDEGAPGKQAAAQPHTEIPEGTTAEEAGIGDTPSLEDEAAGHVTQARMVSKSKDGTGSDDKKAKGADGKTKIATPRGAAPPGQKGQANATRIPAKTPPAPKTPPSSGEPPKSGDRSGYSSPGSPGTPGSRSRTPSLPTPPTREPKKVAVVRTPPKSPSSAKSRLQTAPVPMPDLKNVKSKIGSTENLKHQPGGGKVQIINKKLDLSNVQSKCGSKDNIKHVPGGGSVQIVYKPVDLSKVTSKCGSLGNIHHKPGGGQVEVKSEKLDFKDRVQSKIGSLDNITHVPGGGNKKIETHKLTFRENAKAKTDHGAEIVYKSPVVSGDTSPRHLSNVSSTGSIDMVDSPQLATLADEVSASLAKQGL
Hi there, I'd appreciate the recorded pKd for every entry that follows.
Numbers only, as −log10 of the molar value.

A selection of reference data follows.
| Binder | pKd |
| --- | --- |
| hu37D3-H9.v30.4 (antibody, V domains shown) VH: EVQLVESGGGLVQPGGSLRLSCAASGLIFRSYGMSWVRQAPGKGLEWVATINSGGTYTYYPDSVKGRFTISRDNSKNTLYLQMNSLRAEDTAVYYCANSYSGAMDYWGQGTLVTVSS VL: DDVLTQTPLSLPVTPGQPASISCRSSQSIVHSLGNTYFEWYLQKPGQSPQLLIYKVSNRFSGVPDRFSGSGSGTDFTLKISRVEAEDVGVYYCFQGSLVPWTFGQGTKVEIK | 7.66 |
| hu37D3-H9.v30.5 (antibody, V domains shown) VH: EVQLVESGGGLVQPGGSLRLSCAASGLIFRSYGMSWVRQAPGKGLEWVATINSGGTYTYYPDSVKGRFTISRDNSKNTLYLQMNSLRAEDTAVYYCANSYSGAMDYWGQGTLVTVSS VL: DDVLTQTPLSLPVTPGQPASISCRSSQSIVHSIGNTYFEWYLQKPGQSPQLLIYKVSNRFSGVPDRFSGSGSGTDFTLKISRVEAEDVGVYYCFQGSLVPWTFGQGTKVEIK | 7.54 |

Attention now turns to another entry.
# input Suppose we examine the binder hu37D3-H9.v30.2 (antibody, V domains shown) VH: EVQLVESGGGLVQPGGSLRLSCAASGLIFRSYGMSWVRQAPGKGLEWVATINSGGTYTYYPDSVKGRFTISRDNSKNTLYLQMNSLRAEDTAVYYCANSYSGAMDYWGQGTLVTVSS VL: DDVLTQTPLSLPVTPGQPASISCRSSQSIVHSTGNTYFEWYLQKPGQSPQLLIYKVSNRFSGVPDRFSGSGSGTDFTLKISRVEAEDVGVYYCFQGSLVPWTFGQGTKVEIK ; what pKd value has been reported?
# output 8.38
